# System: T-47D breast
# protocol: NCI-60 one-dose screen, 48 h (100 = growth as untreated, 0 = no growth, -100 = all killed)
# experimental_setup: 10 µM unless noted
About 83,000 compounds went through this panel and 20% of them were active in at least one assay; those are over-represented in the sample as a whole.
value_kind: growth (%)
Report the figure in % without appending any unit label.

Here is how some molecules turned out for growth.
# molecule, value_kind, units_of_measure, test_value
rows = [
    ("C=C1C(=O)O[C@H]2[C@H]1CC/C(COC(=O)NCc1cc3ccccc3[nH]1)=C\\CC[C@@]1(C)O[C@@H]21", "growth", "%", -43.1),
    ("C/C(Cc1ccc(Cl)cc1)=C(/c1ccc(Cl)cc1)c1ccc(OCCN2CCCC2)cc1", "growth", "%", 66.3),
    ("Cc1cc2nc3c4cc(O)ccc4n(CCN(C)C)c3nc2cc1C", "growth", "%", 4.84),
]

Form field growth, entry Oc1cccc2ccc(N/N=C/c3cc(CN4CCCCC4)c(O)c4ncccc34)nc12 : 25.3

Data point: NCCNc1nc(-c2ccccc2)nc2nc(-c3ccccc3)oc12 ; growth = 81.7

So for NC(Cc1ccc(O)cc1)C(=O)N/N=C/c1ccccc1O (stereo not drawn) , the logged growth turned out to be 98.1

Just so you know, measured growth for COc1ccc(-c2cc(-c3c(C)oc4cc5occc5c(OC)c4c3=O)nc(N)c2C#N)cc1OC came out at 41.2

For this molecule ( CC[C@H](CC[C@@H](C)[C@H]1CC[C@H]2[C@@H]3/C(=C/c4cccnc4)C(=O)C4=CC(=O)CC[C@]4(C)[C@H]3CC[C@]12C)C(C)C ), measured growth is 47.7

###

Each entry below carries its recorded growth.
# Tested on: KM12 colon
# protocol: NCI-60 one-dose screen, 48 h (100 = growth as untreated, 0 = no growth, -100 = all killed)
# experimental_setup: 10 µM unless noted
# Protocol: Growth inhibition of the KM12 human tumor cell line is measured as a screen for anti-cancer activity. Cells are grown in 96 well plates and exposed to the test compound for 48 hours. Compounds are tested at a single concentration, which is 10^-5 M for most compounds. The reported endpoint is percent growth (GI% or GIPRCNT), where numbers from 0 - 100% represent growth inhibition, and numbers from -100% - 0 represent cell death. For example, a value of 40 represents 60% growth inhibition. […]
About 83,000 compounds went through this panel and 20% of them were active in at least one assay; those are over-represented in the sample as a whole.
The response must be a number in % with no trailing unit.

These solved cases illustrate the format of a correct answer.
# compound, value_kind, test_value
data = [
    ("COc1cc(/C=C/c2cc(/C=C/c3ccc(O)c(OC)c3)n(-c3ccccc3)c(=O)n2)ccc1O", "growth", 63.2),
    ("COc1cccc(-c2nn(-c3ccccc3)cc2-c2ccnc(NCCCNS(=O)(=O)c3ccc(Cl)cc3)c2)c1", "growth", 38.9),
    ("Cc1cc(C)nc(NC(N)=NCCc2ccccc2)n1", "growth", 22.5),
    ("Cc1cc(C=O)c(C)c2c1[nH]c1ccccc12", "growth", 108),
    ("Cc1nn(-c2ccc(Cl)cc2)c(=O)n1CCn1cnc2ccccc21", "growth", 121),
    ("C(=C\\c1c[nH]c2ccccc12)/c1ccc2ccccc2n1", "growth", 52.4),
    ("Cn1cccc1/C=C1/SC(=S)N(CCc2ccc(O)cc2)C1=O", "growth", 40.5),
    ("N=c1c(S(=O)(=O)c2ccccc2)cc2c(=O)n3ccccc3nc2n1C1CCCC1", "growth", 98.5),
    ("Cc1cc(N=O)cc(C(C)(C)C)c1O", "growth", 102),
    ("O=C1c2ccccc2NC(c2cn(-c3ccccc3)nc2-c2cccs2)N1Cc1ccccc1 (stereo not given)", "growth", 83.7),
]

So for Clc1ccc2[nH]cc(-c3nc(-c4c[nH]c5ncccc45)cs3)c2c1 , the logged growth turned out to be 23.3

Just so you know, measured growth for COc1cc(/C=C2\C(=O)N(CC(O)COc3cc(O)c4c(=O)cc(-c5ccccc5)oc4c3)c3ccccc32)cc(OC)c1O (stereo not given) came out at 82

Documented growth of COc1cnc2c(c1)C(=O)c1c-2n(CCCN2CCN(CCO)CC2)c(=O)c2cc([N+](=O)[O-])ccc12 : 32.4

The origin of these recorded values is PubChem BioAssay (NCI).
